Data provenance: paper PMC6100075

So I've got a bunch of compounds here, and I need their viability at 72 h, 15 µM values.
assay-name: Cell viability assay (PrestoBlue resazurin);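 note: mouse B16-F10 melanoma cells exposed to test samples for 72 h, with viability read as fluorescence of resorufin formed when living cells reduce PrestoBlue resazurin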
Type: cell-based, Mus musculus (mouse)
cond: mouse, B16-F10 melanoma cells, 15 μM; 72 h; relative to control; read-out: % Cell Viability
Express the result in % but write the number alone.

Inquiry: What measured viability at 72 h, 15 µM goes with COc1ccc(-c2coc3cc(O)ccc3c2=O)cc1 [Compound 1, Formononetin] ?
Reply text: 96

Inquiry: What measured viability at 72 h, 15 µM goes with COc1ccc(-c2coc3cc(O)cc(O)c3c2=O)cc1 [Compound 3, Biochanin A] ?
Reply text: 103

Inquiry: What measured viability at 72 h, 15 µM goes with O=C1C[C@@H](c2ccc(O)cc2)Oc2cc(O)ccc21 [Compound 24, (2S)-Liquiritigenin] ?
Reply text: 98.9

Inquiry: What measured viability at 72 h, 15 µM goes with COc1cc2c(cc1O)[C@@H]1COc3cc(O)ccc3[C@@H]1O2 [Compound 27] ?
Reply text: 106

Inquiry: What measured viability at 72 h, 15 µM goes with COc1ccc([C@H]2COc3cc(O)ccc3C2=O)c(OC)c1 [Compound 14, (3S)-Sativanone] ?
Reply text: 107

Inquiry: What measured viability at 72 h, 15 µM goes with COc1cc(OC)c(C2COc3cc(O)cc(O)c3C2=O)cc1O (centres unmarked) [Compound 18, Dalparvin A] ?
Reply text: 105

Inquiry: What measured viability at 72 h, 15 µM goes with COc1ccc([C@@H]2COc3cc(O)ccc3C2=O)cc1O [Compound 10] ?
Reply text: 94.9

Inquiry: What measured viability at 72 h, 15 µM goes with COc1c(O)cc2occ(-c3ccc(O)cc3)c(=O)c2c1O [Compound 8, Tectorigenin] ?
Reply text: 130
